Origin of values: patent US20180036405A1

# tested_on: EGFR on A431 epidermoid carcinoma cells (human, UniProt P00533 25-1210)
# protocol_notes: cell-based or functional assay
binders and their reported IC50 of A431 Proliferation
Answer with a number only, understood to be in Molar.

As a guide, the following entries are already answered.
H1H102N (antibody, human IgG1, V domains shown, Tested in human IgG1 Fc format (H1H); also called H1M102N) VH: QVQLQESGPGLVQPSQTLSLTCTVSGGSVSSGDYYWSWIRQHPGKGLEWIGHIYYSGITYYNPSLESRVTITLDTSKNQFSLNLRSVTAADTAVHYCARTAIIGTMDNWGRGTLVTVSS VL: EIVMTQSPATLSVSPGERATLSCRASQSVSSNLAWYQQKPGQAPRLLIYDASTRATGFPARFSGSGSGTEFTLTISSLQSEDFAVYYCQQYNTWWTFGQGTKVEIK : 2.88e-10
H1H143P (antibody, human IgG1, V domains shown, Human IgG1 Fc (H1H)) VH: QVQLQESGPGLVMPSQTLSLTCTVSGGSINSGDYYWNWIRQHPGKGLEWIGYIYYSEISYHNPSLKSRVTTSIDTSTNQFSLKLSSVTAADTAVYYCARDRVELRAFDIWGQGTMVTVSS VL: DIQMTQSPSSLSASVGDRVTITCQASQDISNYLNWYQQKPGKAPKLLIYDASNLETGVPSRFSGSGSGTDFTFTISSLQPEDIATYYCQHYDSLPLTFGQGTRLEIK : 9.97e-11
H1H147P (antibody, human IgG1, V domains shown, Human IgG1 Fc (H1H)) VH: EVQLVESGPGLVQPSQTLSLTCTVSGGSINSGDFYWSWIRQHPGKGLEWIGHIYYSGITYYSPSLKSRLTISVDTSKNQFSLKLSSVTAADTAVYYCARKRVTGEVDYWGQGTLVTVSS VL: DIQMTQSPSSLSASVGDRITITCQANQDINNYLNWYQQKPGKAPKLLISDASNLETGVPSRFSGSGSGTDFTFTISSLQPEDIATYYCQQYDNLPPTFGQGTRLEIKR : 9.77e-11
H1H089N (antibody, human IgG1, V domains shown, Tested in human IgG1 Fc format (H1H); also called H1M089N) VH: EVQLVESGGGLVQPGRSLRLSCAASGFTFDDYAMHWVRQAPGKGLEWVSGINWNSDKIAYADSVKGRFTISRDNAENSLFLQMNSLRPEDTALYYCVKRGDFWTDYYDYWGQGTLVTVSS VL: DIVMTQSPLSLPVTPGEPASISCRSSQSLLHSNGHNYLDWYLQKPGQSPHLLIYLVSNRASGVPDRFSGSGSGTDFTLKISRVEAEDVGVYYCIQALQTPWTFGQGTKVEIK : 2.3e-09
H1H144P (antibody, human IgG1, V domains shown, Human IgG1 Fc (H1H)) VH: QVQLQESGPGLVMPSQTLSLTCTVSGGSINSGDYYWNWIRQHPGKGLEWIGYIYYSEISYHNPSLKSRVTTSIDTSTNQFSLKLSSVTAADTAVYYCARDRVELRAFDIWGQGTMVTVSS VL: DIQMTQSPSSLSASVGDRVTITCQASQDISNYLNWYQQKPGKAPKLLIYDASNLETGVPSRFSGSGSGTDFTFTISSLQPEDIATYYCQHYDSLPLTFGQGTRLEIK : 1.39e-11

Alright, here's another binder for you.
Give reported IC50 of A431 Proliferation value for H1H142P (antibody, human IgG1, V domains shown, Human IgG1 Fc (H1H)) VH: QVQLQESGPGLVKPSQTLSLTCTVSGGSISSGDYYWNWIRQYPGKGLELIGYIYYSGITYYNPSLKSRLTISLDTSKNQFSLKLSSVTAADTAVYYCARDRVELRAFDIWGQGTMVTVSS VL: DIQMTQSPSSLSASIGDRITISCQASQDINNYLNWYQQKPGKAPKLLIYDASNLETGIPSRFSGSGSGTDFTFTISGLQPEDIATYYCQHYDSLPLTFGQGTRLEIK
5.47e-10
